These data points were gathered from patent US20190367631A1.

- ASSAYED TARGET: T1, mouse MSR1 on RAW264.7 cells (mouse, UniProt P30204 1-458)
- T1 construct: whole, on cells; also called MSR1 positive RAW264.7 cells
- T1 sequence (looked up): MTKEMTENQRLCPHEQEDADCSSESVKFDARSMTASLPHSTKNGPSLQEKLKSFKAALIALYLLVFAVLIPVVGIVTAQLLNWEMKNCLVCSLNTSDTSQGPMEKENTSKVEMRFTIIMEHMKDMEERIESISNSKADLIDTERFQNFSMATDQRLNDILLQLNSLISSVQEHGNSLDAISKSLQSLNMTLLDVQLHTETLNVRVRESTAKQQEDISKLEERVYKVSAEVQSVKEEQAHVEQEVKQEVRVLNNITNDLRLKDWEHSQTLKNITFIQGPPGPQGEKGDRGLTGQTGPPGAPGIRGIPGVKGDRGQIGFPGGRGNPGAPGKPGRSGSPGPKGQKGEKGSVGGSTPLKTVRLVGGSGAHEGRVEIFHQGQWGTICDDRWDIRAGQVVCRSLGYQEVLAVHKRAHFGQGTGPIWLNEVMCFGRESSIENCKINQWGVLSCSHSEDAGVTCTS
- ASSAY COMMENT: flow cytometry, RAW264.7 cells
QUANTITY: MFI (MFI)
# output: bare number, implied unit MFI

Ask: May I ask what MFI has been recorded for H1H27729P-N297Q (antibody, human IgG1, V domains shown, human IgG1 Fc with N297Q) VH: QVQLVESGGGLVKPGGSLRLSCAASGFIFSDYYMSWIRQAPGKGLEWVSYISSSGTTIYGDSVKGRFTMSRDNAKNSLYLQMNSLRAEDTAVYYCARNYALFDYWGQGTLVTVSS VL: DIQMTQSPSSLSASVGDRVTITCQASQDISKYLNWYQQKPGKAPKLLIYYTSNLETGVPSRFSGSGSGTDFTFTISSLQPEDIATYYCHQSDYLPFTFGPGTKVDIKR ?
Reply: 3480

# next binder below
Ask: # lookup: MFI of H1H27732P-N297Q (antibody, human IgG1, V domains shown, human IgG1 Fc with N297Q) VH: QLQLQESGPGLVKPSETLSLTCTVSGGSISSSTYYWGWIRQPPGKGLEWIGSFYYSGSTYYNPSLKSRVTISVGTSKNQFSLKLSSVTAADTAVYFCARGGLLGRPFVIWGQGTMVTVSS VL: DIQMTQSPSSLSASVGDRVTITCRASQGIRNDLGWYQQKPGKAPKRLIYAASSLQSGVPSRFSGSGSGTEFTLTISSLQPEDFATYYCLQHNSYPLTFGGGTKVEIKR
Reply: 3420
